target: HIV-1 protease (Human immunodeficiency virus type 1 group M subtype B, UniProt P04585); experiment: biochemical; conditions: dose 30.000 uM
observation type: HIV-1 Protease % Inhib (%)
Please reply with the bare figure in % and do not write the unit itself.

CC(C)(C)OC(=O)NCC(=O)Nc1cccc(C(c2c(O)c3c(oc2=O)CCCCCC3)C2CC2)c1 (single isomer, unassigned) [Example 239] : 100.72
Cn1cnc(S(=O)(=O)Nc2cccc([C@@H](c3c(O)c4c(oc3=O)CCCCCC4)C3CC3)c2)c1 [Example 254] : 103.1
CC(C)(C)OC(=O)N[C@@H](Cc1c[nH]cn1)C(=O)Nc1cccc(C(c2c(O)c3c(oc2=O)CCCCCC3)C2CC2)c1 (single isomer, unassigned) [Example 240] : 109.5
CC(C)(C)OC(=O)N[C@@H](Cc1c[nH]cn1)C(=O)Nc1cccc(C(c2c(O)c3c(oc2=O)CCCCCC3)C2CC2)c1 (single isomer, unassigned) [Example 241] : 104.34
I.O=c1oc2c(c(O)c1C(c1cccc(NS(=O)(=O)CCCN3CCOCC3)c1)C1CC1)CCCCCC2 (stereo not drawn) [Example 365B (Third Title Compound)] : 85.31

For HIV-1 protease (Human immunodeficiency virus type 1 group M subtype B, UniProt P04585), provide HIV-1 Protease % Inhib of O=c1oc2c(c(O)c1C(c1ccccc1)C1CC1)CCCCCC2CC1CCCO1 (single isomer, unassigned) [Example 171] please.
108.64

For HIV-1 protease (Human immunodeficiency virus type 1 group M subtype B, UniProt P04585), provide HIV-1 Protease % Inhib of CCCC(c1cccc(NS(=O)(=O)c2ccc(Cl)cc2)c1)c1c(O)c2c(oc1=O)CCCCCC2 (stereo not drawn) [Example 377] please.
101.29

For HIV-1 protease (Human immunodeficiency virus type 1 group M subtype B, UniProt P04585), provide HIV-1 Protease % Inhib of N#Cc1ccc(S(=O)(=O)Nc2cccc(C(c3c(O)c4c(oc3=O)CCCCCC4)C3CC3)c2)cc1 (stereo not drawn) [Example 402] please.
98.47

For HIV-1 protease (Human immunodeficiency virus type 1 group M subtype B, UniProt P04585), provide HIV-1 Protease % Inhib of CCCCOc1ccc(S(=O)(=O)Nc2cccc(C(c3c(O)c4c(oc3=O)CCCCCC4)C3CC3)c2)cc1 (stereo not drawn) [Example 406] please.
97.21

For HIV-1 protease (Human immunodeficiency virus type 1 group M subtype B, UniProt P04585), provide HIV-1 Protease % Inhib of Cc1cccc(Cl)c1S(=O)(=O)Nc1cccc(C(c2c(O)c3c(oc2=O)CCCCCC3)C2CC2)c1 (stereo not drawn) [Example 287] please.
106.21

For HIV-1 protease (Human immunodeficiency virus type 1 group M subtype B, UniProt P04585), provide HIV-1 Protease % Inhib of CCCC(c1cccc(NS(=O)(=O)c2ccc(C#N)cc2)c1)c1c(O)c2c(oc1=O)CCCCCC2 (single isomer, unassigned) [Example 439] please.
94.26

For HIV-1 protease (Human immunodeficiency virus type 1 group M subtype B, UniProt P04585), provide HIV-1 Protease % Inhib of COCCC1CCCCc2c1oc(=O)c(C(c1ccccc1)C1CC1)c2O (stereo not drawn) [Example 194] please.
107.45

----------
target: HIV-1 protease (Human immunodeficiency virus type 1 group M subtype B, UniProt P04585); test: biochemical; conditions: dose 3.300 uM; read-out: HIV-1 Protease % Inhib
Recorded inhibition at 3.3 µM values for a group of compounds are listed next.
Please reply with the bare figure in % and do not write the unit itself.

Some solved cases for reference:
O=C(Nc1ccccc1)Nc1cccc(C(c2c(O)c3c(oc2=O)CCCCCC3)C2CC2)c1 (stereo not shown) : 72.3
O=C(C=Cc1ccccc1)Nc1cccc(C(c2c(O)c3c(oc2=O)CCCCCC3)C2CC2)c1 (stereo not shown) : 57.6
O=c1oc2c(c(O)c1C(c1ccc(CO)o1)C1CC1)CCCCCC2 (stereo not shown) : 73

Attention now turns to another entry.
inhibition at 3.3 µM lookup needed for COCCOCCC1CCCCc2c1oc(=O)c(C(c1ccccc1)C1CC1)c2O (stereo not shown) , thanks.
67.7

----------
target: HIV-1 protease (Human immunodeficiency virus type 1 group M subtype B); experiment: biochemical; settings: read-out: HIV-1 Protease % Inhib, dose 0.370 uM
observation type: inhibition at 0.37 µM (%)
Please reply with the bare figure in % and do not write the unit itself.

O=c1oc2c(c(O)c1C(c1cccs1)C1CC1)CCCCCC2 (stereo not shown) : 48.6
O=c1oc2c(c(O)c1C(c1cccc(NS(=O)(=O)c3cccc(Cl)c3Cl)c1)C1CC1)CCCCCC2 (stereo not shown) : 73.8
O=c1oc2c(c(O)c1C(c1cccc(NS(=O)(=O)c3cccnc3)c1)C1CC1)CCCCCC2 (stereo not shown) : 97.7
O=c1oc2c(c(O)c1C(c1cccc(NS(=O)(=O)c3cc(Cl)c(Cl)s3)c1)C1CC1)CCCCCC2 (stereo not shown) : 97.8
Cc1ccc(S(=O)(=O)Nc2cccc(C(c3c(O)c4c(oc3=O)CCCCCC4)C3CC3)c2)cc1 (stereo not shown) : 86.6
O=c1oc2c(c(O)c1C(c1cccc(NS(=O)(=O)c3ccccc3Cl)c1)C1CC1)CCCCCC2 (stereo not shown) : 82.4
O=C(NCc1ccc(C(c2c(O)c3c(oc2=O)CCCCCC3)C2CC2)s1)OCc1ccccc1 (stereo not shown) : 21.1
CCOC(=O)Nc1cccc(C(c2c(O)c3c(oc2=O)CCCCCC3)C2CC2)c1 (stereo not shown) : 43.7

inhibition at 0.37 µM lookup needed for O=c1oc2c(c(O)c1C(c1cccc(NS(=O)(=O)c3cccc([N+](=O)[O-])c3)c1)C1CC1)CCCCCC2 (stereo not shown) , thanks.
88.2

inhibition at 0.37 µM lookup needed for CCCC(c1ccccc1)c1c(O)c2c(oc1=O)CCCCCC2 (stereo not shown) , thanks.
83.5

inhibition at 0.37 µM lookup needed for COc1cccc(Br)c1S(=O)(=O)Nc1cccc(C(c2c(O)c3c(oc2=O)CCCCCC3)C2CC2)c1 (stereo not shown) , thanks.
47.9

inhibition at 0.37 µM lookup needed for CC(C)C(c1cccc(NS(=O)(=O)c2cccnc2)c1)c1c(O)c2c(oc1=O)CCCCCC2 (stereo not shown) , thanks.
65.9

inhibition at 0.37 µM lookup needed for O=c1oc2c(c(O)c1C(c1cccc(NS(=O)(=O)c3ccc(S(=O)(=O)c4ccccc4)s3)c1)C1CC1)CCCCCC2 (stereo not shown) , thanks.
97.8

----------
target: HIV-1 protease (Human immunodeficiency virus type 1 group M subtype B, UniProt P04585); assay: biochemical; conditions: read-out: HIV-1 FITC KI
observation type: Ki

O=c1oc2c(c(O)c1[C@@H](c1cccc(NS(=O)(=O)c3ccc(Cl)cc3)c1)C1CC1)CCCCCC2 : 1.25 nM
O=c1oc2c(c(O)c1C(c1cccc(NS(=O)(=O)c3c(F)c(F)c(F)c(F)c3F)c1)C1CC1)CCCCCC2 (centres unmarked) : 13.6 nM
O=C(NCc1ccc(C(c2c(O)c3c(oc2=O)CCCCCC3)C2CC2)s1)OCc1ccccc1 (centres unmarked) : 46.2 nM
CC(C)N=C(Nc1cccc(C(c2c(O)c3c(oc2=O)CCCCCC3)C2CC2)c1)NC(C)C (centres unmarked) : 982 nM
Cc1cncc(S(=O)(=O)Nc2cccc(C(c3c(O)c4c(oc3=O)CCCCCC4)C3CC3)c2)c1 (centres unmarked) : 2.58 nM
CC(C)(C)OC(=O)NCCC(=O)Nc1cccc(C(c2c(O)c3c(oc2=O)CCCCCC3)C2CC2)c1 (centres unmarked) : 3 nM

Ki lookup needed for NC(=O)c1ccc(S(=O)(=O)Nc2cccc(C(c3c(O)c4c(oc3=O)CCCCCC4)C3CC3)c2)cc1 (centres unmarked) [Example 365A] , thanks.
1.86 nM

Ki lookup needed for CCC1CCCCc2c1oc(=O)c(C(c1ccccc1)C1CC1)c2O (centres unmarked) , thanks.
22 nM

----------
target: HIV-1 protease (Human immunodeficiency virus type 1 group M subtype B, UniProt P04585); experiment: biochemical; conditions: read-out: HIV-1 Protease % Inhib, dose 1.100 uM
observation type: inhibition at 1.1 µM
Mention the unit after the number when you answer.

CC(C)(C)OC(=O)NCC(=O)Nc1cccc(C(c2c(O)c3c(oc2=O)CCCCCC3)C2CC2)c1 (stereo not shown) [Example 200] : 90.9%
CC(C)(C)OC(=O)NCCC(=O)Nc1cccc(C(c2c(O)c3c(oc2=O)CCCCCC3)C2CC2)c1 (stereo not shown) [Example 196] : 91.8%
O=c1oc2c(c(O)c1C(c1cccc(NS(=O)(=O)c3cccc4nsnc34)c1)C1CC1)CCCCCC2 (stereo not shown) [Example 340] : 90.9%
O=C(O)c1ccc(S(=O)(=O)Nc2cccc(C(c3c(O)c4c(oc3=O)CCCCCC4)C3CC3)c2)cc1 (stereo not shown) [Example 276] : 99.3%
CC(C)(C)OC(=O)NCCC(=O)Nc1cccc(C(c2c(O)c3c(oc2=O)CCCCC3)C2CC2)c1 (stereo not shown) [Example 214] : 74.1%

For HIV-1 protease (Human immunodeficiency virus type 1 group M subtype B, UniProt P04585), provide inhibition at 1.1 µM of O=c1oc2c(c(O)c1C(c1cccc(NS(=O)(=O)c3cc(Cl)cc(Cl)c3)c1)C1CC1)CCCCCC2 (stereo not shown) [Example 288] please.
90.5%

For HIV-1 protease (Human immunodeficiency virus type 1 group M subtype B, UniProt P04585), provide inhibition at 1.1 µM of CCCCS(=O)(=O)Nc1cccc(C(c2c(O)c3c(oc2=O)CCCCCC3)C2CC2)c1 (stereo not shown) [Example 326] please.
102%
